Target: T1, purified recombinant IFNAR-1 extracellular fragment (human, UniProt P17181 28-436)
T1 construct: extracellular domain; also called soluble IFNAR-1; soluble IFNAR
T1 sequence (looked up): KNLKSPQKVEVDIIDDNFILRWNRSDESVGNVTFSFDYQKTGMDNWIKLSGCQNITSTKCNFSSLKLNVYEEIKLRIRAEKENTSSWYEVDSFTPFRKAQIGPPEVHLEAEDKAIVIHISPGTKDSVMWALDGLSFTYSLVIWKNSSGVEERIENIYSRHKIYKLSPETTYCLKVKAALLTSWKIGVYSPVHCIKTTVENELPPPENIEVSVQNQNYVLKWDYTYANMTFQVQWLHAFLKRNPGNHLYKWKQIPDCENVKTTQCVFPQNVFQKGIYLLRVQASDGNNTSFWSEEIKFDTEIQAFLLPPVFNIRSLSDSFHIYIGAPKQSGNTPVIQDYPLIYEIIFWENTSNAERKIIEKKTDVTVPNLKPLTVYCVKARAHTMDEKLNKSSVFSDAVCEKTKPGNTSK
Experiment: Biacore, response on IFNAR-1 (flow cell 2) divided by response on anti-human IgG Fc (flow cell 4)
Experimental Endpoint: Fc2/Fc4
Could you keep your reply to the number by itself?

Q) Answer with reported Fc2/Fc4 of M3 heavy chain with K1-DE light chain (antibody, human IgG4, V domains shown, also called M3 K1-D/E) VH: EVQLLESGGGLVQPGGSLRLSCAFSGFTLSTSGMGIGWVRQAPGKGLEWVAHIWWDDDKYYNPSLKSRFTISRDTSKNTVYLQMNSLRAEDTAVYYCARNYYPYDAWFDYWGQGTLVTVS VL: DIQMTQSPSSLSASVGDRVTITCSASSSINSNHLNWYQQKPGKAPKLLIYRTSILASGVPSRFSGSGSGTSFTLTISSLQPEDFATYYCQQTSNIPFTFGQGTKVEIKR
A) -0.1

Q) Answer with reported Fc2/Fc4 of M3K1 (antibody, V domains shown, also called heavy chain M3 with light chain K1) VH: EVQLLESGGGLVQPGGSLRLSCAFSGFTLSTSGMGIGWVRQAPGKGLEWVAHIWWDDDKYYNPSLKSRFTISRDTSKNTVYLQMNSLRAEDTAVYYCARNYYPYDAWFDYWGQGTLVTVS VL: DIQMTQSPSSLSASVGDRVTITCSASSSINSNHLHWYQQKPGKAPKLLIYRTSILASGVPSRFSGSGSGTSFTLTISSLQPEDFATYYCQQGSNIPFTFGQGTKVEIKR
A) 0.42

Q) Answer with reported Fc2/Fc4 of M3 heavy chain with K1-CD light chain (antibody, human IgG4, V domains shown, also called M3 K1-C/D) VH: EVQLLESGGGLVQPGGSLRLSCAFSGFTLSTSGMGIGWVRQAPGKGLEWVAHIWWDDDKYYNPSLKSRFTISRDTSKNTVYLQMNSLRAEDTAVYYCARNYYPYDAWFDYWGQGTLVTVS VL: DIQMTQSPSSLSASVGDRVTITCSASTSINSNHLNWYQQKPGKAPKLLIYRTSILASGVPSRFSGSGSGTSFTLTISSLQPEDFATYYCQQGSNIPFTFGQGTKVEIKR
A) 0.17

Q) Answer with reported Fc2/Fc4 of M3 heavy chain with DI K1 light chain (antibody, human IgG4, V domains shown, also called M3 DI K1) VH: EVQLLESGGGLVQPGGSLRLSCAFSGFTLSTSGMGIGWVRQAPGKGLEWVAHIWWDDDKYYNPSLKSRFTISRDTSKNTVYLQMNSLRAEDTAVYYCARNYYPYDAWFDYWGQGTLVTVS VL: DIQMTQSPSSLSASVGDRATITCSASSSINSNHLHWYLQKPGKAPKALIYRTSILASGIPSRFSGSGSGTDFTLTISSLQPEDTATYYCQQGSNIPFTFGQGTKVEIKR
A) 0.17

Q) Answer with reported Fc2/Fc4 of M3 heavy chain with K1-C light chain (antibody, human IgG4, V domains shown, also called M3 K1-C) VH: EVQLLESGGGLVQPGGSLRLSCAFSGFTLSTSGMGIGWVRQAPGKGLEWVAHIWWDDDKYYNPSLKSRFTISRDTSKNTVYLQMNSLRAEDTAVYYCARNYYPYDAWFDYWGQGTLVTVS VL: DIQMTQSPSSLSASVGDRVTITCSASTSINSNHLHWYQQKPGKAPKLLIYRTSILASGVPSRFSGSGSGTSFTLTISSLQPEDFATYYCQQGSNIPFTFGQGTKVEIKR
A) 0.29
